Target: T1, human GIP receptor (human) (UniProt P48546)
T1 sequence (looked up): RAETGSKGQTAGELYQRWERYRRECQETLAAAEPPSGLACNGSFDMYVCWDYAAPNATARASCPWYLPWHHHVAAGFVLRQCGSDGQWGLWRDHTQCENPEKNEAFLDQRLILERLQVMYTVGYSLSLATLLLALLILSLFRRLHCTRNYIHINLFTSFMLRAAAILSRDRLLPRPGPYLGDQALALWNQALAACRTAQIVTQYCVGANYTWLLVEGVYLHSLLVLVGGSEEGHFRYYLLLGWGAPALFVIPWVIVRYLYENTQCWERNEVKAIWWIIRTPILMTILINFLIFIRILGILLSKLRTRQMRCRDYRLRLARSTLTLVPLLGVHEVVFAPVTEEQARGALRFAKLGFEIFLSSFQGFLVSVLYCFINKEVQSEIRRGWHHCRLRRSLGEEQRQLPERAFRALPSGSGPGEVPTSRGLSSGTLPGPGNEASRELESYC
Test: cell-based or functional assay
Starred links: 1 amine or outer side, 2 acyl side, 3 side chain; linkers in the order of their positions; H or OH if unused. Non-standard residues stand in square brackets, D forms with d. Groups on a side chain read outwards from the residue. No end group written: not given here. *: point of attachment. C20 diacid = O=C(O)CCCCCCCCCCCCCCCCCCC(=O)*; γGlu = O=C(O)[C@H](CCC(=O)[*:2])N[*:1]; αMeL = CC(C)C[C@](C)(N)C(=O)O; AEEA = NCCOCCOCC(=O)O; Aib = CC(C)(N)C(=O)O
ASSAY_METRIC: log10 of Relative cAMP EC50 (log10 of the value in nM)

>>> number("YXQGTFTSDXSRXLDKKAQXAFIEXLLEGGPSSGAPPPSGS (synthetic construct; SITE 2: note = 2-Aminoisobutyric Acid; SITE 10: note = 3-(4-Pyridyl)-L-alanine; SITE 13: note = alpha-methyl-leucine; SITE 17: note = Lysine is chemically modified through conjugation of the epsilon-amino group of the Lysine side chain with (2-[2-(2-Amino-ethoxy)-ethoxy]-acetyl)) [Example 909]")
-0.92
>>> number("YXQGTXTSDXXIXLDXKAQXEFIEXLVEGGPSSGEPPPSGSE (synthetic construct; SITE 2: note = 2-Aminoisobutyric Acid; SITE 6: note = alpha-methyl-2-fluoro-L-phenylalanine; SITE 10: note = 3-(4-Pyridyl)-L-alanine; SITE 11: note = alpha-methyl-L-serine; SITE 13: note = alpha-methyl-leucine; SITE 16: note = L-ornithine; SITE 17: note = Lysine is chemically mo) [Example 752]")
-2.16
>>> number("YXQGTFTSDFSKXLDKKAQXAFIEYLLEXGPSSGAPPPGGS (acylated Lys; Aib, αMeL non-natural; C-terminal amide; synthetic construct; SITE 2: note = 2-Aminoisobutyric Acid; SITE 13: note = alpha-methyl-leucine; SITE 17: note = Lysine is chemically modified through conjugation of the epsilon-amino group of the Lysine side chain with (2-[2-(2-Amino-ethoxy)-ethoxy]-acetyl)-(gamma-Glu)-CO-(CH2) 18-CO2H; SITE 20: n) [Example 43]")
-1.00
>>> number("YXQGTFTSDXSKXLDKKAQXAFIEYLIEXGESSGEPPPSGE (synthetic construct; SITE 2: note = 2-Aminoisobutyric Acid; SITE 10: note = 3-(4-Pyridyl)-L-alanine; SITE 13: note = alpha-methyl-leucine; SITE 17: note = Lysine is chemically modified through conjugation of the epsilon-amino group of the Lysine side chain with (2-[2-(2-Amino-ethoxy)-ethoxy]-acetyl)) [Example 281]")
-0.81
>>> number("YXQGTXTSDXXIXLDXKAAXEFIEXLIEGGPSSGAPPPSGTEX (synthetic construct; SITE 2: note = 2-Aminoisobutyric Acid; SITE 6: note = alpha-methyl-2-fluoro-L-phenylalanine; SITE 10: note = 3-(4-Pyridyl)-L-alanine; SITE 11: note = alpha-methyl-L-serine; SITE 13: note = alpha-methyl-leucine; SITE 16: note = L-ornithine; SITE 17: note = Lysine is chemically mo) [Example 726]")
-1.89
>>> number("Y[Aib]QGTFTSDFSK[αMeL]LDKK([AEEA-γGlu-C20 diacid])AQQAFIEYLLA[Aib]GPSSGEPPPSEG-NH2 [Example 19]")
-0.64
